- assay-method-text: Metabolic stability in mouse whole blood (LC-MS/MS)
- Format: in vitro ADME
- test-settings: mouse whole blood, 10 μM, percent of test compound remaining after 1 hour, average of duplicate
Listed next: entries and their corresponding Mouse blood stability 1 h (% remaining).

>  <structure-string>
CCNC(=O)c1nnc(-c2cc(C(C)C)c(O)cc2O)n1-c1ccc(CN2CCC(C(=O)N3CC[C@H](C(=O)OC[C@@H](NC(=O)c4cc(-c5cc(NC(C)C)ncc5Cl)c[nH]4)c4cccc(Cl)c4)C3)CC2)c(F)c1

>  <Mouse blood stability 1 h (% remaining)>
55.5%

$$$$
>  <structure-string>
CC(C)c1cc(-c2nnc(O)n2-c2ccc(CN3CCC(C(=O)N4CC[C@H](C(=O)OC[C@H](O)Cn5cnc6c(c(Nc7ccc(I)cc7F)c(F)c(=O)n6C)c5=O)C4)CC3)c(F)c2)c(O)cc1O

>  <Mouse blood stability 1 h (% remaining)>
0%

$$$$
>  <structure-string>
CCNC(=O)c1nnc(-c2cc(C(C)C)c(O)cc2O)n1-c1ccc(CN2CCC(C(=O)N3CCC(CC(=O)OC[C@@H](NC(=O)c4cc(-c5cc(NC(C)C)ncc5Cl)c[nH]4)c4cccc(Cl)c4)CC3)CC2)c(F)c1

>  <Mouse blood stability 1 h (% remaining)>
100%

$$$$
>  <structure-string>
CCNC(=O)c1nnc(-c2cc(C(C)C)c(O)cc2O)n1-c1ccc(CN2CCC(C(=O)NC3(C(=O)OC[C@@H](NC(=O)c4cc(-c5cc(NC(C)C)ncc5Cl)c[nH]4)c4cccc(Cl)c4)CC3)CC2)c(F)c1

>  <Mouse blood stability 1 h (% remaining)>
105%

$$$$
>  <structure-string>
CCNC(=O)c1nnc(-c2cc(C(C)C)c(O)cc2O)n1-c1ccc(CN2CCC(C(=O)N3CCC(C(=O)OC[C@@H](NC(=O)c4cc(-c5cc(NC(C)C)ncc5Cl)c[nH]4)c4cccc(Cl)c4)CC3)CC2)c(F)c1

>  <Mouse blood stability 1 h (% remaining)>
77.1%

$$$$
>  <structure-string>
CCNC(=O)c1nnc(-c2cc(C(C)C)c(O)cc2O)n1-c1ccc(CN2CCC(C(=O)NC(C)(C)C(=O)OC[C@@H](NC(=O)c3cc(-c4cc(NC(C)C)ncc4Cl)c[nH]3)c3cccc(Cl)c3)CC2)c(F)c1

>  <Mouse blood stability 1 h (% remaining)>
105%

$$$$
>  <structure-string>
CC(C)Nc1cc(-c2c[nH]c(C(=O)N[C@H](COC(=O)CC3CCN(C(=O)C4CCN(Cc5ccc(-n6c(O)nnc6-c6cc(C(C)C)c(O)cc6O)cc5F)CC4)CC3)c3cccc(Cl)c3)c2)c(Cl)cn1

>  <Mouse blood stability 1 h (% remaining)>
48.2%

$$$$
>  <structure-string>
CC(C)Nc1cc(-c2c[nH]c(C(=O)N[C@H](COC(=O)C3CCN(C(=O)C4CCN(Cc5ccc(-n6c(O)nnc6-c6cc(C(C)C)c(O)cc6O)cc5F)CC4)CC3)c3cccc(Cl)c3)c2)c(Cl)cn1

>  <Mouse blood stability 1 h (% remaining)>
30.8%

$$$$
>  <structure-string>
CCNC(=O)c1nnc(-c2cc(C(C)C)c(O)cc2O)n1-c1ccc(N(C)C2CCN(C(=O)CCC(=O)OC[C@H](O)Cn3cnc4c(c(Nc5ccc(I)cc5F)c(F)c(=O)n4C)c3=O)CC2)nc1

>  <Mouse blood stability 1 h (% remaining)>
10.8%

$$$$
>  <structure-string>
CCNC(=O)c1nnc(-c2cc(C(C)C)c(O)cc2O)n1-c1ccc(CN2CCC(C(=O)N3CC(C(=O)OC[C@@H](NC(=O)c4cc(-c5cc(NC(C)C)ncc5Cl)c[nH]4)c4cccc(Cl)c4)C3)CC2)c(F)c1

>  <Mouse blood stability 1 h (% remaining)>
30%

$$$$
>  <structure-string>
CC(C)Nc1cc(-c2c[nH]c(C(=O)N[C@H](COC(=O)C3(NC(=O)C4CCN(Cc5ccc(-n6c(O)nnc6-c6cc(C(C)C)c(O)cc6O)cc5F)CC4)CC3)c3cccc(Cl)c3)c2)c(Cl)cn1

>  <Mouse blood stability 1 h (% remaining)>
86.9%

$$$$
